# RUN_DESCRIPTION: Plasma protein binding assay (PPB), equilibrium dialysis, 10% FCS in PBS
# Type: in vitro ADME
# MEASUREMENT_PARAMETERS: bovine, read-out: PPB 10% FCS (% fu)
EXPERIMENTAL_ENDPOINT: fraction unbound
Quick one: just the number, no unit, thanks!

Answered examples (5):
[[record]]
structure_smiles_string = "C[C@H](Oc1cc(-n2cncc3ccnc2-3)nc(-c2onc3c2CCC[C@@]32CCCc3sc(N)c(C#N)c32)n1)[C@@H]1CCCN1C"
recorded_measurement = 0.1

[[record]]
structure_smiles_string = "C[C@H](Oc1cc(-c2ccn(C[C@@H](C)O)n2)nc(-c2onc3c2CCC[C@@]32CCCc3sc(N)c(C#N)c32)n1)[C@@H]1CCCN1C"
recorded_measurement = 0.46

[[record]]
structure_smiles_string = "C[C@H](Oc1cc(N2CCOC3(CC3)C2)nc(-c2noc3c2CCC[C@@]32CCCc3sc(N)c(C#N)c32)n1)[C@@H]1CCCN1C"
recorded_measurement = 0.26

[[record]]
structure_smiles_string = "C[C@H](Oc1cc(-c2cncnc2)nc(-c2noc3c2CCC[C@@]32CCCc3sc(N)c(C#N)c32)n1)[C@@H]1CCCN1C"
recorded_measurement = 0.66

[[record]]
structure_smiles_string = "C[C@H](Oc1cc(-n2cc(Cn3ccnc3)nn2)nc(-c2noc3c2CCC[C@@]32CCCc3sc(N)c(C#N)c32)n1)[C@@H]1CCCN1C"
recorded_measurement = 0.39


Short answer for `C[C@H](Oc1nc(-c2onc3c2CCC[C@@]32CCCc3sc(N)c(C#N)c32)cc(N2CCN(C)C3(CC3)C2)n1)[C@@H]1CCCN1C` : fraction unbound was 0.51

The compound `C[C@H](Oc1cc(-n2ccnc2)nc(-c2noc3c2CCC[C@@]32CCCc3sc(N)c(C#N)c32)n1)[C@@H]1C[C@@H](F)CN1C` showed fraction unbound equal to 0.24

Sample `CNC(=O)c1cn(-c2cc(O[C@@H](C)[C@@H]3CCCN3C)nc(-c3noc4c3CCC[C@@]43CCCc4sc(N)c(C#N)c43)n2)nn1` ; fraction unbound observed: 0.44

Per the records, this compound ( `CC(=O)N1CC=C(c2cc(O[C@@H](C)[C@@H]3CCCN3C)nc(-c3noc4c3CCC[C@@]43CCCc4sc(N)c(C#N)c43)n2)CC1` ) has fraction unbound equal to 0.52

The recorded fraction unbound for entry `C[C@H](Oc1cc(N2C[C@H]3CN(C)C[C@H]3C2)nc(-c2noc3c2CCC[C@@]32CCCc3sc(N)c(C#N)c32)n1)[C@@H]1CCCN1C` equals 0.68

----------
# ASSAY_SYSTEM: KRAS (G12C)::SOS1 (Homo sapiens (Human), UniProt P01116, C118S/C51S/C80L/G12C)
# Sequence (P01116 other isoform, or with tags, fused parts or gaps G12C/C51S/C80L/C118S): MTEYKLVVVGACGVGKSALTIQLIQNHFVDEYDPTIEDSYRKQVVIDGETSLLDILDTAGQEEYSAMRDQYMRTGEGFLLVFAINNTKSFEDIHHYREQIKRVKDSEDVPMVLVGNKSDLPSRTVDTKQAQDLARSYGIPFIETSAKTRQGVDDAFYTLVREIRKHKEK
# RUN_DESCRIPTION: KRAS::SOS1 AlphaScreen binding assay, KRAS G12C
EXPERIMENTAL_ENDPOINT: pIC50
Friendly reminder that pIC50 comes from taking -log10 of the concentration in mol/L.

[[record]]
structure_smiles_string = "C[C@H](Oc1cc(-n2cc3c(n2)CCN(C)C3)nc(-c2noc3c2CCC[C@@]32CCCc3sc(N)c(C#N)c32)n1)[C@@H]1CCCN1C"
experimental_endpoint = "pIC50"
recorded_measurement = 8.70


Entry `C[C@H](Oc1cc(-n2ccnc2)nc(-c2noc3c2CCC[C@@]32CCCc3sc(N)c(C#N)c32)n1)[C@@H]1CCCN1C` ; pIC50 = 8.70

# pIC50 (molecule: `C[C@H](Oc1cc(N2CCN(C)C3(CC3)C2)nc(-c2onc3c2CCC[C@@]32CCCc3sc(N)c(C#N)c32)n1)[C@@H]1CCCN1C` ) is 8.22
